- targetOfAssay: T1, ALKTG-EGFL (human ALK amino acids 648-1025) (human, UniProt Q9UM73 648-1025, N-linked glycans; EndoH-trimmed (deglycosylated) for crystals and SEC-MALLS)
- T1 construct: The C-terminal Fc-His6 tag was removed by caspase 3; also called ALK (in BLI, SEC-MALLS and ITC)
- T1 sequence (Q9UM73 648-1025): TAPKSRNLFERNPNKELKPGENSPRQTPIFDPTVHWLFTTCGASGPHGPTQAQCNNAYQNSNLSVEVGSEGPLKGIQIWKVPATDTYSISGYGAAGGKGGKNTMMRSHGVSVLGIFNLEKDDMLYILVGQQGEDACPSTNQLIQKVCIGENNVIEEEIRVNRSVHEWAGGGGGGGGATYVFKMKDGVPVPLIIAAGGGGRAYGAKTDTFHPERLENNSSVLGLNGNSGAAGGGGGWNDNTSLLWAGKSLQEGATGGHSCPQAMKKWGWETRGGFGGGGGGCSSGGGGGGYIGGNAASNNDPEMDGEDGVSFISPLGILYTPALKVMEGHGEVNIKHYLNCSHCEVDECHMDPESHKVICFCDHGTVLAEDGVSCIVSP
- testName: BLI, biotinylated ALKAL2 on streptavidin biosensors, ALKTG-EGFL in solution 800 nM to 12.5 nM, 1:1 model
endpoint: pKd
In simple prose, pKd is minus the logarithm base ten of a concentration in moles per litre.

pKd in this record for ALKAL2 (truncated, residues 78-152) (ligand, human, UniProt Q6UX46 78-152, looked up, range 78-152; Tag-free in ITC, SEC-MALLS, crystals and Ba/F3 assays; also called ALKAL2^WT; WT ALKAL2) PSPEQRVEIVPRDLRMKDKFLKHLTGPLYFSPKCSKHFHRLYHNTRDCTIPAYYKRCARLLTRLAVSPVCMEDKQ : 6.87
